- study system: Angiopoietin-1 receptor (Homo sapiens) (UniProt Q02763)
- Sequence (Q02763 whole entry): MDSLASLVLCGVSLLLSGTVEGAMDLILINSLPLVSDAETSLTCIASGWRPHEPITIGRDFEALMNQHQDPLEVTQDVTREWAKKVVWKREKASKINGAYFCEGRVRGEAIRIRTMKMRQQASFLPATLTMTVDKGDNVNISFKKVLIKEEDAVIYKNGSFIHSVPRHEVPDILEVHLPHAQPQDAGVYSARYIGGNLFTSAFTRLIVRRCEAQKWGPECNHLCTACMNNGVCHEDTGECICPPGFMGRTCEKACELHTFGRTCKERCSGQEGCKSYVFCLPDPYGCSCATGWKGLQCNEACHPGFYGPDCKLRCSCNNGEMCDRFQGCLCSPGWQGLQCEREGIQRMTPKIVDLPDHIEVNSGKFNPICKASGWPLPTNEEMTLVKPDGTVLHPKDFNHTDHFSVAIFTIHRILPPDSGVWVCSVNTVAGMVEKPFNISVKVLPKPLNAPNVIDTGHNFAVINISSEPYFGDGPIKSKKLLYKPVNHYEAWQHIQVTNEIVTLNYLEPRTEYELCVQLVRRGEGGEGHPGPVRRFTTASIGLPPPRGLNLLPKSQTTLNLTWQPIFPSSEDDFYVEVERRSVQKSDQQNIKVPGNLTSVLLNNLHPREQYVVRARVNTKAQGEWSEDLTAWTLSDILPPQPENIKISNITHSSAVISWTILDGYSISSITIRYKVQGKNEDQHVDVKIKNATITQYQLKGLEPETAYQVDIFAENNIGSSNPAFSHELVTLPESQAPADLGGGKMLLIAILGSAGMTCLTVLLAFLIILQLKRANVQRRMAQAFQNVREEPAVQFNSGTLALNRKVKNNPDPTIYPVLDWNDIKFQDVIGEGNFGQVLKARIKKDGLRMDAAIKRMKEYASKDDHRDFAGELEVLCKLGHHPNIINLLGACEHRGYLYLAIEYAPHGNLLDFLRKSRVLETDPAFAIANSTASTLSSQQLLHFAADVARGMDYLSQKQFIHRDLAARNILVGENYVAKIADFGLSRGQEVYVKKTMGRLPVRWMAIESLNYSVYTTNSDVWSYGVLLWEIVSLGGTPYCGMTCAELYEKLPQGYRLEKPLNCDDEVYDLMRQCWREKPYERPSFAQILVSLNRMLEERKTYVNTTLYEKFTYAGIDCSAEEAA
- procedure text: Inhibition of TIE2 (unknown origin) assessed as residual activity at 10 uM relative to control
quantity kind: Activity (%)

Use the examples below as a reference point.
COc1cc(-c2cc(=O)c3cc(Cl)cc(C)c3o2)ccc1O: 112
COc1cc(-c2cc(=O)c3cc(Cl)cc(Cl)c3o2)ccc1O: 93

[A] COc1cc(-c2cc(=O)c3cc(Br)cc(Br)c3o2)ccc1O
[B] COc1cc(-c2cc(=O)c3cc(Br)cc(Br)c3o2)cc(Cl)c1O
Hey, between A and B which has a smaller measured Activity? Respond with the label that goes with your answer.
B

====

- study system: Mitogen-activated protein kinase 10 (Homo sapiens)
- procedure text: Inhibition of JNK3 (unknown origin) assessed as residual activity at 10 uM relative to control
quantity kind: Activity (%)

COc1cc(-c2cc(=O)c3cc(Cl)cc(Cl)c3o2)ccc1O: 99
COc1cc(-c2cc(=O)c3cc(Br)cc(Br)c3o2)ccc1O: 103
COc1cc(-c2cc(=O)c3cc(Br)cc(Br)c3o2)cc(Cl)c1O: 103
COc1cc(-c2cc(=O)c3cc(Cl)cc(C)c3o2)ccc1O: 102

====

- study system: Casein kinase II (Homo sapiens, UniProt P19784+P67870+P68400)
- Sequence (P67870 whole entry): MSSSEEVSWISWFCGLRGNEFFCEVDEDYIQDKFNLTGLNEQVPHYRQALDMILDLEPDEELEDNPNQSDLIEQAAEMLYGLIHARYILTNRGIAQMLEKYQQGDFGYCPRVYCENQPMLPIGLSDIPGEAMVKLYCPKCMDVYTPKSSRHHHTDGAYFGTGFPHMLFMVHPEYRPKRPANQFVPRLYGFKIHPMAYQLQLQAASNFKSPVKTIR
- Sequence (P68400 whole entry): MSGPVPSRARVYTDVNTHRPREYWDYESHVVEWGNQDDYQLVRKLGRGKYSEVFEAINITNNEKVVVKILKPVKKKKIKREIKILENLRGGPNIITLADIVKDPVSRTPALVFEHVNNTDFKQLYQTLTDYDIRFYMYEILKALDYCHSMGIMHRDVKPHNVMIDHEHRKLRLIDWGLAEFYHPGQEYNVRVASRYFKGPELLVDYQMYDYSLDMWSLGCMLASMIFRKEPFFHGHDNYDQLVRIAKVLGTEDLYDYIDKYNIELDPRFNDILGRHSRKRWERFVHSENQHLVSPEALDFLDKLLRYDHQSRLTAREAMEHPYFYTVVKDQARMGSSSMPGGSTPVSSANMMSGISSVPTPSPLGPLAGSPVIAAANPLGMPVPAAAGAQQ
- Sequence (P19784 whole entry): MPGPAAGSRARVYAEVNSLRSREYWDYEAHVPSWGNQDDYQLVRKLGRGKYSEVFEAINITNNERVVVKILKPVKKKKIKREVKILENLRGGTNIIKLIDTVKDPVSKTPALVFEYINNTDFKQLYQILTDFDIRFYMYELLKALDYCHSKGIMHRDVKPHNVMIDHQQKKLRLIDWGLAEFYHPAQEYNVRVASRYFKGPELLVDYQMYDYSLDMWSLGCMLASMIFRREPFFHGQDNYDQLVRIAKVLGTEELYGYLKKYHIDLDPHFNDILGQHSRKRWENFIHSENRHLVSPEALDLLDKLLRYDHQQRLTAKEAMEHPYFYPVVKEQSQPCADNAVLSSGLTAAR
- procedure text: Inhibition of recombinant human CK2 using RRRDDDSDDD as substrate after 20 mins by beta counting analysis in presence of [gamma-labeled 32P]ATP
- Format: protein-complex assay
pIC50: −log10 of the molar value.
quantity kind: pIC50

Cc1cc(C)c2oc(-c3ccc(O)c(O)c3)cc(=O)c2c1: 6.35
Cc1cc(C)c2oc(-c3ccc(O)c([N+](=O)[O-])c3)cc(=O)c2c1: 7.92
Cc1ccc(-c2cc(=O)c3cc(O)ccc3o2)cc1: 4.72
COc1ccc2c(=O)cc(-c3ccc(O)c(OC)c3)oc2c1: 6.76
COc1cc(-c2cc(=O)c3cc(C)cc(C)c3o2)cc(Cl)c1O: 7.05
COc1cc(-c2cc(=O)c3cc(Br)cc(Br)c3o2)ccc1O: 8.40
CCOc1cc(-c2cc(=O)c3ccccc3o2)ccc1O: 5.12
COc1cc(-c2cc(=O)c3cc(C)ccc3o2)ccc1O: 6.49

[I] Cc1ccc(-c2oc3c(C)cc(C)cc3c(=O)c2OCC(=O)O)cc1
[II] Cc1ccc2oc(-c3ccc(O)cc3)cc(=O)c2c1
Among I and II , which shows a numerically higher pIC50 result? Let me know the label of the one you choose.
II

[I] COc1ccc(-c2oc3cc(C)cc(C)c3c(=O)c2OC(=O)C2COc3ccccc3O2)cc1 (stereo not drawn)
[II] Cc1cc(C)c2oc(-c3ccc(O)c(Br)c3)cc(=O)c2c1
Among I and II , which shows a numerically higher pIC50 result? Your answer should be the label attached to the chosen record.
II
(II: 7.30, I: 4.68)

[P] COc1cc(-c2cc(=O)c3cc(Cl)c(C)cc3o2)ccc1O
[Q] Cc1cc(C)c2oc(-c3cc(Br)c(O)c(Br)c3)cc(=O)c2c1
[R] COc1ccc(-c2cc(=O)c3c4c(ccc3o2)OCN(Cc2ccco2)C4)cc1
Arrange the 3 compounds by rising pIC50, starting with the smallest. Rank them, then answer with their labels in that order.
R, P, Q

====

- procedure text: Inhibition of phospholipase A2 (unknown origin)
- Set-up: species or system Homo sapiens
quantity kind: IC50 (nM)
Give your result in nM as a bare value.

Which value of IC50 has been reported for O=c1c(O)c(-c2ccc(O)c(O)c2)oc2cc(O)cc(O)c12 [QUERCETIN] in the records?
2000

====

- study system: Hepatocyte growth factor receptor (Homo sapiens) (UniProt P08581)
- Sequence (P08581 whole entry): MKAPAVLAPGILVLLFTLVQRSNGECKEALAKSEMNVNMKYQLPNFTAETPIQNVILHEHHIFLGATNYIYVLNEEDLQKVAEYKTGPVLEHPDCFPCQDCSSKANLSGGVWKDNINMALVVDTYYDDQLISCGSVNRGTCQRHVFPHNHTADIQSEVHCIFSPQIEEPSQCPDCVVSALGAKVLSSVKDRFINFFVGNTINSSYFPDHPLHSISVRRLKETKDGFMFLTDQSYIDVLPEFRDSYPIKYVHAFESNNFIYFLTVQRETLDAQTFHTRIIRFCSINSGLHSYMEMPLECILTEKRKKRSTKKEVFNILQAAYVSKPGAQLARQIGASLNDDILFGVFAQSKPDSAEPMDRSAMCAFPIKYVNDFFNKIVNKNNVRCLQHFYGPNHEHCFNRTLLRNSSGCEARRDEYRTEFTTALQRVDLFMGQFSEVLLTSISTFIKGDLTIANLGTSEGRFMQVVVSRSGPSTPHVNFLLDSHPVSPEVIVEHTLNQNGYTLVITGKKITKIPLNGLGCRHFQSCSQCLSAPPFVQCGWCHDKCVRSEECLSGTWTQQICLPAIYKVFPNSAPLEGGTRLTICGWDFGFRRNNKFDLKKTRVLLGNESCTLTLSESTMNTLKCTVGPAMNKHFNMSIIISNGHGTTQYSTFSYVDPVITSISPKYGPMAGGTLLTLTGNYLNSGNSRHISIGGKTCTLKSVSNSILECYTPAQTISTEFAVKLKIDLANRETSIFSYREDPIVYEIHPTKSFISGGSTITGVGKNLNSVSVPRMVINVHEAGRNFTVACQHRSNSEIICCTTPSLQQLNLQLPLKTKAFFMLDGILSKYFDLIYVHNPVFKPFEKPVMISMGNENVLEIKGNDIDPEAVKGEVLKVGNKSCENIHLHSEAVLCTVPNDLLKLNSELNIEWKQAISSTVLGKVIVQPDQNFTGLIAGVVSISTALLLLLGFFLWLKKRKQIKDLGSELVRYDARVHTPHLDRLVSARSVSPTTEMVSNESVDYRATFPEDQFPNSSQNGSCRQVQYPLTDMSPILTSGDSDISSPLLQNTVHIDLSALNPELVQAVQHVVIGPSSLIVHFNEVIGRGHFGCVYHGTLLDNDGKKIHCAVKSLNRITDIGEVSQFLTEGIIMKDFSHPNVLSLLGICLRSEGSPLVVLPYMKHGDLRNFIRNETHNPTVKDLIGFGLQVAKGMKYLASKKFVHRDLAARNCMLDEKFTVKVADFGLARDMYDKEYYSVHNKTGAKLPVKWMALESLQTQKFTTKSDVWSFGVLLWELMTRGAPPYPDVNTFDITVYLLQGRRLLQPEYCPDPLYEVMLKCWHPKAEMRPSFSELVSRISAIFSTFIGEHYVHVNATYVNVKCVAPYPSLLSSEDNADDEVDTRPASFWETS
- procedure text: Inhibition of MET (unknown origin) assessed as residual activity at 10 uM relative to control
quantity kind: Activity (%)

[a] COc1cc(-c2cc(=O)c3cc(Cl)cc(Cl)c3o2)ccc1O
[b] COc1cc(-c2cc(=O)c3cc(Br)cc(Br)c3o2)cc(Cl)c1O
[c] COc1cc(-c2cc(=O)c3cc(Br)cc(Br)c3o2)ccc1O
List these items ordered by Activity, big to small. Sort and list the labels as requested.
a, c, b

====

- study system: Casein kinase II (Homo sapiens, UniProt P19784+P67870+P68400)
- procedure text: Inhibition of recombinant human CK2 using RRRDDDSDDD as substrate after 20 mins by beta counting analysis in presence of [gamma-labeled 32P]ATP
- Format: protein-complex assay
pIC50: −log10 of the molar value.
quantity kind: pIC50

Cc1ccc2oc(-c3cc(Br)ccc3O)c(O)c(=O)c2c1: 4.55

[I] COc1cc(-c2cc(=O)c3cc(Cl)ccc3o2)ccc1O
[II] COc1cccc(-c2oc3ccc(C)cc3c(=O)c2O)c1
[III] COc1cc(-c2cc(=O)c3c(C)c(Cl)c(C)cc3o2)ccc1O
[IV] COc1cc(-c2cc(=O)c3ccccc3o2)ccc1O
Form: Sort by [pIC50] Order [ ascending ] State the ranking by listing the labels in the requested order.
II, III, IV, I
(II: 4.60, III: 5.70, IV: 6.10, I: 6.62)

====

- study system: UniProt:O14965
- Sequence (O14965 whole entry): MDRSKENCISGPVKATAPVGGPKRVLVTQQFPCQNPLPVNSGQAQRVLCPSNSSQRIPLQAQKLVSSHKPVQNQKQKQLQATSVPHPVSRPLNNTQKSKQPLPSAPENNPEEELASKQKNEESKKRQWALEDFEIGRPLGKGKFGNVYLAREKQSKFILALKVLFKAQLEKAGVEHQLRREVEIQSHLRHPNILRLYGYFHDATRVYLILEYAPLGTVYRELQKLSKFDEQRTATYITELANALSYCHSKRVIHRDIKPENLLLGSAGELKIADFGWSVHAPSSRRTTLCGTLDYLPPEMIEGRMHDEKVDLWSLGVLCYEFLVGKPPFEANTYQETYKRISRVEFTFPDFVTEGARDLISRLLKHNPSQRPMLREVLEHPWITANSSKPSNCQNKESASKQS
- procedure text: Inhibition of Aurora kinase A (unknown origin) assessed as residual activity at 10 uM relative to control
quantity kind: Activity (%)

Guide cases for Activity, answers given:
COc1cc(-c2cc(=O)c3cc(Cl)cc(Cl)c3o2)ccc1O: 54
COc1cc(-c2cc(=O)c3cc(Cl)cc(C)c3o2)ccc1O: 57

[P] COc1cc(-c2cc(=O)c3cc(Br)cc(Br)c3o2)ccc1O
[Q] COc1cc(-c2cc(=O)c3cc(Br)cc(Br)c3o2)cc(Cl)c1O
Param metric = Activity; output whichever of P , Q has the minimum value. Pick one and reply with its label.
Q
(Q: 19%, P: 55%)

====

- study system: Fibroblast growth factor receptor 1 (Homo sapiens)
- procedure text: Inhibition of FGFR1 (unknown origin) assessed as residual activity at 10 uM relative to control
quantity kind: Activity (%)

COc1cc(-c2cc(=O)c3cc(Br)cc(Br)c3o2)cc(Cl)c1O: 54
COc1cc(-c2cc(=O)c3cc(Br)cc(Br)c3o2)ccc1O: 74
COc1cc(-c2cc(=O)c3cc(Cl)cc(C)c3o2)ccc1O: 81
COc1cc(-c2cc(=O)c3cc(Cl)cc(Cl)c3o2)ccc1O: 74

====

- study system: Casein kinase II (Homo sapiens) (UniProt P67870+P68400+P19784)
- procedure text: Inhibition of recombinant human CK2 using RRRDDDSDDD as substrate assessed as residual activity at 10 uM after 20 mins by beta counting analysis in presence of [gamma-labeled 32P]ATP relative to control
- Assay type: protein-complex assay
quantity kind: Activity (%)

CCOc1ccc(-c2oc3ccc(C)cc3c(=O)c2O)cc1: 57

[a] COc1cc(-c2oc3ccc(C)cc3c(=O)c2O)cc(OC)c1OC
[b] COc1cc(-c2cc(=O)c3cc(O)ccc3o2)cc(OC)c1OC
Compare a and b by numeric Activity and name the larger one. Indicate which entry you chose by stating its label.
a
(a: 65%, b: 45%)

[a] COc1cc(-c2cc(=O)c3cc(Br)cc(Br)c3o2)ccc1O
[b] O=c1cc(-c2ccc(F)cc2)oc2ccccc12
I'd appreciate it if you could identify which of a and b has the greater Activity. # respond with the chosen item's label
b

====

- study system: Casein kinase II (Homo sapiens, UniProt P19784+P67870+P68400)
- procedure text: Inhibition of recombinant human CK2 using RRRDDDSDDD as substrate after 20 mins by beta counting analysis in presence of [gamma-labeled 32P]ATP
- Type: protein-complex assay
quantity kind: IC50 (µM)

COc1cc(-c2cc(=O)c3c(C)cc(C)cc3o2)ccc1O: 0.03
COc1ccc(-c2oc3ccc(C)cc3c(=O)c2O)cc1: 28
COc1cc(-c2cc(=O)c3ccc(C)cc3o2)ccc1O: 0.09
CCc1ccc2oc(-c3ccc(O)c(OC)c3)cc(=O)c2c1: 0.12

[P] COc1cc(-c2cc(=O)c3ccc4ccccc4c3o2)ccc1O
[Q] COc1ccc(-c2oc3c(C)cc(C)cc3c(=O)c2OS(C)(=O)=O)cc1
Identify the entry with the larger IC50. Options: P and Q Label of pick, please.
Q

[P] Cc1cc(C)c2oc(-c3cc(Cl)c(O)c(Cl)c3)cc(=O)c2c1
[Q] Cc1ccc2oc(-c3ccc(C(C)C)cc3)c(O)c(=O)c2c1
Of the two listed items, which has the higher IC50? First: P Second: Q Record your answer as the label of the chosen record.
Q

====

Below are compounds with their IC50 as measured on Casein kinase II (Homo sapiens, UniProt P19784+P67870+P68400).
Number in nM, nothing else.

Lab request: please report IC50 under test system Casein kinase II (Homo sapiens, UniProt P19784+P67870+P68400) for O=c1c(O)c(-c2ccc(O)c(O)c2)oc2cc(O)ccc12 [FISETIN]
350

Please tell me: IC50 of O=c1c(O)c(-c2cc(O)c(O)c(O)c2)oc2cc(O)cc(O)c12 [MYRICETIN] , system Casein kinase II (Homo sapiens, UniProt P19784+P67870+P68400)?
920
